system: Plasmodium berghei; experiment: Luciferase/luciferin-expressing antifolate-resistant parasites were used to infect a culture of HepG2 cells that were pre-incubated with compounds. Infected hepatocytes emit light due to the luciferase reaction. Assay results are presented as the percent inhibition of light emission compared to control. […]; format: functional; settings: sporozoite, HEPG2TOX_HILL_SLOPE 3.1, HEPG2TOX_R_SQUARED 0.966, PBLUC_HILL_SLOPE 14.3, 0.748, PBLUC_R_SQUARED 0.481, 0.667, read-out: LUCIFERASE INFECTION ASSAY - IC50

{"Smiles Repr": "CC(=O)Nc1ccc2c(Cn3ncc(Cl)c(Cl)c3=O)cc(=O)oc2c1", "IC50 [µM]": 5.45}

* * *

test system: Plasmodium berghei; assay: Luciferase/luciferin-expressing antifolate-resistant parasites were used to infect a culture of HepG2 cells that were pre-incubated with compounds. Infected hepatocytes emit light due to the luciferase reaction. Assay results are presented as the percent inhibition of light emission compared to control. […]; assay type: functional; details: sporozoite, FFLUC_HILL_SLOPE 3.01, FFLUC_R_SQUARED 0.379, HEPG2TOX_HILL_SLOPE 2.46, HEPG2TOX_R_SQUARED 0.824, read-out: LUCIFERASE INFECTION ASSAY - IC50

{"Smiles Repr": "O=[N+]([O-])c1cc(Cl)cc(/C=N/Nc2cc(C(F)(F)F)ccc2Cl)c1O", "IC50": "> 10 µM"}

* * *

system: Plasmodium berghei; test: Luciferase/luciferin-expressing antifolate-resistant parasites were used to infect a culture of HepG2 cells that were pre-incubated with compounds. Infected hepatocytes emit light due to the luciferase reaction. Assay results are presented as the percent inhibition of light emission compared to control. […]; type: functional; settings: sporozoite, PBLUC_HILL_SLOPE 2.19, PBLUC_R_SQUARED 0.549, read-out: LUCIFERASE INFECTION ASSAY - IC50
pIC50: −log10 of the molar value.

{"Smiles Repr": "CCCc1oc2c(cc(NS(=O)(=O)c3ccc(Cl)cc3)c3ccccc32)c1C(=O)OCC", "Assayed System": "Plasmodium berghei", "pIC50": 5.24}

* * *

system: Plasmodium berghei; experiment: Luciferase/luciferin-expressing antifolate-resistant parasites were used to infect a culture of HepG2 cells that were pre-incubated with compounds. Infected hepatocytes emit light due to the luciferase reaction. Assay results are presented as the percent inhibition of light emission compared to control. […]; assay type: functional; conditions: sporozoite, HEPG2TOX_HILL_SLOPE 1.45, HEPG2TOX_R_SQUARED 0.961, PBLUC_HILL_SLOPE 3.11, PBLUC_R_SQUARED 0.33, read-out: LUCIFERASE INFECTION ASSAY - IC50
pIC50: −log10 of the molar value.

{"Smiles Repr": "Cc1ccc(-c2nc(C(=O)NC3CC3)cc3c2[nH]c2ccccc23)cc1", "pIC50": 5.44}

* * *

tested on: Plasmodium berghei; assay: Luciferase/luciferin-expressing antifolate-resistant parasites were used to infect a culture of HepG2 cells that were pre-incubated with compounds. Infected hepatocytes emit light due to the luciferase reaction. Assay results are presented as the percent inhibition of light emission compared to control. […]; type: functional; conditions: sporozoite, HEPG2TOX_HILL_SLOPE 9.48, HEPG2TOX_R_SQUARED 0.645, PBLUC_HILL_SLOPE 1.2, PBLUC_R_SQUARED 0.596, read-out: LUCIFERASE INFECTION ASSAY - IC50
pIC50: −log10 of the molar value.
Outcome Measure: pIC50

{"Smiles Repr": "Oc1cccc(-c2ccnc3n[nH]c(-c4ccc5c(c4)OCO5)c23)c1", "Outcome Measure": "pIC50", "Value": 6.01}

* * *

system: Plasmodium berghei; experiment: Luciferase/luciferin-expressing antifolate-resistant parasites were used to infect a culture of HepG2 cells that were pre-incubated with compounds. Infected hepatocytes emit light due to the luciferase reaction. Assay results are presented as the percent inhibition of light emission compared to control. […]; assay type: functional; conditions: sporozoite, HEPG2TOX_HILL_SLOPE 8.87, HEPG2TOX_R_SQUARED 0.252, read-out: LUCIFERASE INFECTION ASSAY - IC50
pIC50: −log10 of the molar value.
Outcome Measure: pIC50

{"Smiles Repr": "C/C(=N\\Nc1ccnc2cc(Cl)ccc12)c1ccc(-n2ccnc2)cc1", "Value": "< 5.00"}

* * *

test system: Plasmodium berghei; experiment: Luciferase/luciferin-expressing antifolate-resistant parasites were used to infect a culture of HepG2 cells that were pre-incubated with compounds. Infected hepatocytes emit light due to the luciferase reaction. Assay results are presented as the percent inhibition of light emission compared to control. […]; assay type: functional; conditions: sporozoite, read-out: LUCIFERASE INFECTION ASSAY - IC90

{"Smiles Repr": "CCOC(=O)N1CCC(Nc2ncnc3c2oc2ccccc23)CC1", "IC90": "> 10 µM"}
{"Smiles Repr": "CN(C)c1cccc(Nc2nccc3[nH]c(-c4cccc(F)c4)cc23)c1", "IC90": "1.41 µM"}
{"Smiles Repr": "CCc1cccc(CC)c1N(C(C)=O)c1nc(/C=C/C(=O)c2ccc3c(c2)OCCO3)cs1", "IC90": "3.81 µM"}
{"Smiles Repr": "O=C(Nc1nc2ccccc2[nH]1)c1cc(-c2ccccn2)nc2ccccc12", "IC90": "9.7 µM"}
{"Smiles Repr": "O=C(NCc1cc(C(F)(F)F)cc(C(F)(F)F)c1)c1ccc(Cl)c(Cl)c1", "IC90": "> 7.93 µM"}
{"Smiles Repr": "CCN(CC(=O)Nc1ccccc1C(F)(F)F)C(=O)Cn1c(=O)cnc2ccccc21", "IC90": "> 10 µM"}
{"Smiles Repr": "CC(C)(C)c1cc2nc(C(F)(F)F)cc(N/N=C/c3ccccc3)n2n1", "IC90": "> 9.13 µM"}
{"Smiles Repr": "COc1cc(-c2[nH]nc3nccc(-c4ccc(C(C)C)cc4)c23)cc(OC)c1OC", "IC90": "> 10 µM"}
{"Smiles Repr": "O=C1/C(=C/c2ccc(-n3cncn3)c(F)c2)CSc2ccccc21", "IC90": "> 10 µM"}
{"Smiles Repr": "CC(C)(C)c1ccc(Oc2ccc(/C=C/C(=O)c3ccc(NC4=NCCCS4)cc3)cc2[N+](=O)[O-])cc1", "IC90": "> 10 µM"}

* * *

test system: Plasmodium berghei; experiment: Luciferase/luciferin-expressing antifolate-resistant parasites were used to infect a culture of HepG2 cells that were pre-incubated with compounds. Infected hepatocytes emit light due to the luciferase reaction. Assay results are presented as the percent inhibition of light emission compared to control. […]; assay type: functional; details: sporozoite, PBLUC_HILL_SLOPE 2.15, PBLUC_R_SQUARED 0.14, read-out: LUCIFERASE INFECTION ASSAY - IC50

{"Molecule": "COc1cccc(/C=C/C(=O)NC2CCCc3ccccc32)c1OC(F)F (stereo unspecified)", "IC50": "> 10 µM"}

* * *

test system: Plasmodium berghei; test: Luciferase/luciferin-expressing antifolate-resistant parasites were used to infect a culture of HepG2 cells that were pre-incubated with compounds. Infected hepatocytes emit light due to the luciferase reaction. Assay results are presented as the percent inhibition of light emission compared to control. […]; type: functional; details: sporozoite, FFLUC_HILL_SLOPE 21.4, FFLUC_R_SQUARED 0.595, PBLUC_HILL_SLOPE 3.16, PBLUC_R_SQUARED 0.111, read-out: LUCIFERASE INFECTION ASSAY - IC50
pIC50: −log10 of the molar value.
Outcome Measure: pIC50

{"Smiles Repr": "O=C1C=CC(=O)N1c1ccccc1OC(F)(F)F", "Assayed System": "Plasmodium berghei", "Value": 5.09}

* * *

system: Plasmodium berghei; test: Luciferase/luciferin-expressing antifolate-resistant parasites were used to infect a culture of HepG2 cells that were pre-incubated with compounds. Infected hepatocytes emit light due to the luciferase reaction. Assay results are presented as the percent inhibition of light emission compared to control. […]; assay type: functional; settings: sporozoite, PBLUC_HILL_SLOPE 2.7, PBLUC_R_SQUARED 0.455, read-out: LUCIFERASE INFECTION ASSAY - IC50

{"Compound": "COc1ccc(C(CNC(=O)c2ccccc2-c2ncc(-c3ccccc3)o2)N(C)C)cc1 (stereo unspecified)", "IC50 [µM]": 5.19}

* * *

system: Plasmodium berghei; assay: Luciferase/luciferin-expressing antifolate-resistant parasites were used to infect a culture of HepG2 cells that were pre-incubated with compounds. Infected hepatocytes emit light due to the luciferase reaction. Assay results are presented as the percent inhibition of light emission compared to control. […]; format: functional; details: sporozoite, HEPG2TOX_HILL_SLOPE 6.37, HEPG2TOX_R_SQUARED 0.94, PBLUC_HILL_SLOPE 33.9, PBLUC_R_SQUARED 0.41, read-out: LUCIFERASE INFECTION ASSAY - IC50

{"Compound": "Cc1cc(SCC(=O)NC(C)C2CC3CCC2C3)n2c(nc3ccccc32)c1C#N (stereo unspecified)", "IC50 / µM": 3.32}
